tested on: Liver microsomes; experiment: Metabolic stability in human liver microsomes; format: ADME, Microsome
assay.endpoint: Stability

INSERT INTO measurements (compound, result) VALUES
  ('Cc1cc(CC(OC(=O)N2CCC(N3Cc4ccccc4NC3=O)CC2)c2cc(C(=O)N(C)C)ccn2)cc2cn[nH]c12 (stereo not drawn)', 'Unstable'),
  ('Cc1cc(CC(OC(=O)N2CCC(c3cc4ccccc4[nH]c3=O)CC2)c2cc(CN3CCCC3)ccn2)cc2cn[nH]c12 (stereo not drawn)', 'Unstable'),
  ('Cc1cc(CC(OC(=O)N2CCC(N3Cc4ccccc4NC3=O)CC2)c2cc(C=O)ccn2)cc2cn[nH]c12 (stereo not drawn)', 'Unstable');

====

target: Calcitonin gene-related peptide type 1 receptor (Homo sapiens, UniProt O60894+Q16602); assay: Antagonist activity at CGRP receptor in human SK-N-MC cells assessed as inhibition of CGRP-stimulated cAMP production; type: functional, cell-based
Sequence (Q16602 whole entry, one chain of several): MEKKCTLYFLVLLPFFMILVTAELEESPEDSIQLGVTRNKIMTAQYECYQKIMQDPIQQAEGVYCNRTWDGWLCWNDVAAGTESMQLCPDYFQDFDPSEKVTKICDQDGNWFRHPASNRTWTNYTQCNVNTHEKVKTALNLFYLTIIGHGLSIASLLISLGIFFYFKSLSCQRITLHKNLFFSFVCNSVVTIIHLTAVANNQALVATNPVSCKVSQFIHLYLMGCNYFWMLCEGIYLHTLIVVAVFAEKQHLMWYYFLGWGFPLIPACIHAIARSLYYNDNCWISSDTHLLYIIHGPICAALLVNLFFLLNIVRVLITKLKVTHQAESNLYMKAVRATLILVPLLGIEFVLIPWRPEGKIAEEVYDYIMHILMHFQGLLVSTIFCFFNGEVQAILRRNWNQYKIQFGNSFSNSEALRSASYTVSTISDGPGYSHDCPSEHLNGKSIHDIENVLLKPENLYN
assay.endpoint: IC50 (nM)

INSERT INTO results (compound, assay_endpoint, readout_number) VALUES
  ('Cc1cc(CC(OC(=O)N2CCC(N3Cc4ccccc4NC3=O)CC2)c2cc(CN3CCCCC3)ccn2)cc2cn[nH]c12 (stereo not drawn)', 'IC50', 0.02);

I = Cc1cc(CC(OC(=O)N2CCC(c3cc4ccccc4[nH]c3=O)CC2)c2cc(C(=O)N(C)C)cc(Cl)n2)cc2cn[nH]c12 (stereo not drawn)
II = Cc1cccnc1C(CC(=O)N1CCC(N2Cc3ccccc3NC2=O)CC1)Cc1cc(C)c2[nH]ncc2c1 (stereo not drawn)
III = Cc1cc(CC(OC(=O)N2CCC(c3cc4ccccc4[nH]c3=O)CC2)c2cc(CN3CCCCCC3)ccn2)cc2cn[nH]c12 (stereo not drawn)
Order field: IC50 | Direction: descending (largest first) // format: requested-order list of labels II, I, III

P = Cc1cc(CC(OC(=O)N2CCC(N3Cc4ccccc4NC3=O)CC2)c2ccc3ccccc3n2)cc2cn[nH]c12 (stereo not drawn)
Q = Cc1cc(CC(CC(=O)N2CCC(N3Cc4cccc(F)c4NC3=O)CC2)c2ccccn2)cc2cn[nH]c12 (stereo not drawn)
R = Cc1cc(CC(NC(=O)N2CCC(N3Cc4ccccc4NC3=O)CC2)c2cccc(-c3ccccc3)n2)cc2cn[nH]c12 (stereo not drawn)
S = Cc1cc(CC(CC(=O)N2CCC(N3Cc4ccccc4NC3=O)CC2)c2ccc(C=O)cn2)cc2cn[nH]c12 (stereo not drawn)
With regard to IC50, arrange the entries in ascending order, please. // format: requested-order list of labels S, P, R, Q
(S: 0.94 nM, P: 4.8 nM, R: 14 nM, Q: 20 nM)
